Target: T1, Polyhistidine-tagged recombinant human GFAP expressed from E. coli (human, UniProt P14136 1-432)
T1 construct: also called His-tagged GFAP; not shown: polyhistidine tag
T1 sequence (P14136 whole entry): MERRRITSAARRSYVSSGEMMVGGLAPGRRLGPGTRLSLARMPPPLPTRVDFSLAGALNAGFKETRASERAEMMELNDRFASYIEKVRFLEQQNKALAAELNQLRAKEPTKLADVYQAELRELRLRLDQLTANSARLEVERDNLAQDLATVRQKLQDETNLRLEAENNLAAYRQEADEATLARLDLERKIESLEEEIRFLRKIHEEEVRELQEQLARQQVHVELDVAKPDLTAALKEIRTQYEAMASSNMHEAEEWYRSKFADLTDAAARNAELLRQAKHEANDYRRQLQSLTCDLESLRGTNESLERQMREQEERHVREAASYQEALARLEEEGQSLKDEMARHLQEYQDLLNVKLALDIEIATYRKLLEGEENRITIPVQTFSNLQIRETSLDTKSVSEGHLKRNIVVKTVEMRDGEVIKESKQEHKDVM
Assay: BLI (Octet QKe); His-tagged GFAP on anti-Penta-HIS sensor, antibody in solution
MEASURED QUANTITY: kon (M⁻¹ s⁻¹)
State the answer as a number, implicitly in M⁻¹ s⁻¹.

Input line: I have this binder here, GFAP-18 (antibody, V domains shown, also called mouse anti-GFAP antibody GFAP-18) VH: EVILVESGGGLVKPGGSLKVSCAVSGFTFSNFAMSWVRQTPEKRLEWVASISSGGTTYYPDNVKGRFTISRDNARNIMYLQMSSLRSEDTAMYFCARGGLHYFGYWGQGTTLTVSS VL: DIVMTQSHKFMSTSVGDRVSITCKASQDVNTAVAWYQQKPGQSLKLLIYSASYRYIGVPDRFTGSGSGTDFTFTINSVQAEDLAVYYCHQYYSTPLTFGTGTKLELK , and I need its recorded kon.
Output line: 344000

Just for reference, patent US20210347914A1 is where these values come from.
